Target: 3-phosphoinositide-dependent protein kinase 1 [50-359] (Homo sapiens, UniProt O15530)
Sequence (O15530 whole entry): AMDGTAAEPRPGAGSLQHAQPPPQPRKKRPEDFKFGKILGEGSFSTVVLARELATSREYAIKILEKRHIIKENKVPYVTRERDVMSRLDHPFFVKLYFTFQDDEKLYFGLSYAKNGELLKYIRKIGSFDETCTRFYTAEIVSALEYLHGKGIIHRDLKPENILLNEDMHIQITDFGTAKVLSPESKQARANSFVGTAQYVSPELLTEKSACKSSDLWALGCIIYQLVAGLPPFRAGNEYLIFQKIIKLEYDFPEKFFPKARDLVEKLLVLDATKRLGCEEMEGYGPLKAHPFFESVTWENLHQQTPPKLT
assay.metric: Kd (nM)
Respond with the bare value in nM.

Give a short answer stating reported Kd for O=C1c2ccccc2-c2n[nH]c3cccc1c23 . 1250

Origin of measurements: BindingDB's records for doi:10.1016/j.chembiol.2016.06.017
